Test: Microsomal stability assay, monkey liver microsomes
Type: in vitro ADME
Conditions: pH 7.4, read-out: Liver microsome T½ (min) Monkey
Known half-life at 1 μM of a selection of compounds

Which half-life at 1 μM reading was recorded for the compound `CC(C)(c1ccc(OCc2coc(NS(C)(=O)=O)n2)cc1)c1cc(Cl)c(OCCCl)c(Cl)c1` ? > 120 min

Which half-life at 1 μM reading was recorded for the compound `CC(C)(c1ccc(OCc2ocnc2S(C)(=O)=O)cc1)c1cc(Cl)c(OCCCl)c(Cl)c1` ? > 120 min

Which half-life at 1 μM reading was recorded for the compound `CC(C)(c1ccc(OCc2ocnc2S(C)(=O)=O)cc1)c1cc(Cl)c(OCCCl)c(C#N)c1` ? 73 min

Which half-life at 1 μM reading was recorded for the compound CNC(=O)c1ccc(N2C(=S)N(c3ccc(C#N)c(C(F)(F)F)c3)C(=O)C2(C)C)cc1F [Enzalutamide, enzalutamide, reference compound] ? > 120 min

Which half-life at 1 μM reading was recorded for the compound `CC(C)(c1ccc(OCc2ccnc(NS(C)(=O)=O)n2)cc1)c1cc(Cl)c(OCCCl)c(C#N)c1` ? > 120 min

New cases:
Which half-life at 1 μM reading was recorded for the compound `CC(C)(c1ccc(OCc2ccnc(NS(C)(=O)=O)n2)cc1)c1cc(Cl)c(OCCCl)c(Cl)c1` ? > 120 min

Which half-life at 1 μM reading was recorded for the compound `CC(C)(c1ccc(OCc2ncc(S(C)(=O)=O)s2)cc1)c1cc(Cl)c(OCCCl)c(C#N)c1` ? 101 min
